Just for reference, ChEMBL document CHEMBL3297708 is where these values come from.

What Tmax was measured for each of the following?
# testProtocol: Tmax in mouse at 10 mg/kg, po
# Assay type: ADME, organism-based
# Set-up: dose 10 mg/kg, route oral
# appliedConditions: in vivo
Give a bare numeral; the unit h is implied.

GET /value?item= CCc1nc2cc(Cl)ccn2c1C(=O)NCc1ccc(N2CCN(c3ccc(F)cc3)CC2)cc1 &field=Tmax returns 2

# Tmax (compound: CCc1nc2ccc(Cl)cn2c1C(=O)NCc1ccc(N2CCC(c3ccc(OC(F)(F)F)cc3)CC2)cc1 ) is 2

Recorded Tmax (compound CCc1nc2cc(Cl)ccn2c1C(=O)NCc1ccc(N2CCC(c3ccc(OC(F)(F)F)cc3)CC2)cc1 ): 2

====

# testProtocol: Half life in mouse liver microsomes
# Assay type: ADME
Classify by measured half-life: 1 if it is equal to or exceeds 20 min, -1 if it is smaller.

Answer whether half-life of CCc1nc2ccc(Cl)cn2c1C(=O)NCc1ccc(-c2ccccc2)cc1 is greater than or equal to 20 min.
-1

Hello, I need to know if CCc1nc2cc(Cl)ccn2c1C(=O)NCc1ccc(N2CCC(Cl)CC2)cc1 has measured half-life not below 20 min. Thanks!
-1

Kindly determine if half-life recorded for CCc1nc2cc(Cl)ccn2c1C(=O)NCc1ccc(N2CCN(C)CC2)cc1 is above or exactly 20 min.
-1

Item CCc1nc2cc(Cl)ccn2c1C(=O)NCc1ccc(N2CCN(c3ccc(OC(F)(F)F)cc3)CC2)cc1 with half-life of 20 min or above?
1

Has CCc1nc2cc(Cl)ccn2c1C(=O)NCc1ccc(-c2ccc(Cl)cc2)cc1 a recorded half-life greater than or equal to 20 min?
1

Determine whether this compound has half-life no lower than 20 min: CCc1nc2cc(Cl)ccn2c1C(=O)NCc1ccc(-c2ccc(C(C)(C)C)cc2)cc1
1

Please check the record CCc1nc2cc(Cl)ccn2c1C(=O)NCc1ccc(-c2ccc(C(=O)O)cc2)cc1 and state if its half-life is at or above 20 min.
1

Decide: is the reported value of half-life for CCc1nc2ccc(Cl)cn2c1C(=O)NCc1ccc(-c2ccc(C)cc2)cc1 equal to or greater than 20 min?
1

Assess whether reported half-life for Cc1nc2ccc(Cl)cn2c1C(=O)NCc1ccc(-c2ccccc2)cc1 sits at 20 min or higher.
1

Check the entry CCc1nc2ccc(Cl)cn2c1C(=O)NCc1ccc(N2CCN(c3ccc(OC(F)(F)F)cc3)CC2)cc1 : does half-life equal or exceed 20 min?
1

====

# testProtocol: Half life in human liver microsomes
# Assay type: ADME
assayReadout: half-life

According to the records, this compound CCc1nc2ccc(Cl)cn2c1C(=O)NCc1ccc(-c2ccc(C#N)cc2)cc1 displays half-life of > 120 min

Sure, the documented half-life for CCc1nc2ccc(Cl)cn2c1C(=O)NCc1ccc(-c2ccccc2Cl)cc1 is 38.9 min

Documented half-life of CCc1nc2cc(Cl)ccn2c1C(=O)NCc1ccc(-c2ccc(C)cc2)cc1 : 25.4 min

Recorded half-life (compound CCc1nc2cc(Cl)ccn2c1C(=O)NCc1ccc(N2CCCCCC2)cc1 ): 2.9 min

Per the record, CCc1nc2cc(Cl)ccn2c1C(=O)NCc1ccc(-c2ccncc2)cc1 has half-life of 28.9 min

Just so you know, measured half-life for CCc1nc2cc(Cl)ccn2c1C(=O)NCc1ccc(-c2ccc(C(C)(C)C)cc2)cc1 came out at 18.5 min

Form: compound = CCc1nc2cc(Cl)ccn2c1C(=O)NCc1ccc(N2CC3CCCCC3C2)cc1 (stereo not given) ; half-life = 14.9 min

For reference, reported half-life for CC(C)c1nc2ccccn2c1C(=O)NCc1ccc(-c2ccccc2)cc1 stands at 31.6 min

half-life reading for CCc1nc2cc(Cl)ccn2c1C(=O)NCc1ccc(-c2ccc[nH]2)cc1 : > 120 min

Notebook: CCCc1nc2ccccn2c1C(=O)NCc1ccc(-c2ccccc2)cc1 , half-life read as 22.4 min
